- Tested on: A549/ATCC NSCLC
- EXPERIMENT: NCI-60 one-dose screen, 48 h
- RUN PARAMETERS: 10 µM unless noted
About 83,000 compounds went through this panel and 20% of them were active in at least one assay; those are over-represented in the sample as a whole. Activity calls are given as the source filed them. Rule for the calls: active = growth percent below 10; inactive = the rest.
Classes used: active, inactive

{"columns": ["COMPOUND", "TESTED TARGET", "CATEGORY"],
 "data": [
  ["O=C(Nc1cccc(Cl)c1)Nc1nc2ccc(-c3cccc4ccccc34)cc2s1", "A549/ATCC NSCLC", "inactive"],
  ["O=C1C[C@@H](c2ccccc2)Oc2c(Cc3ccccc3O)c(O)c(Cc3cc(Cc4cc(Cc5ccccc5O)ccc4O)ccc3O)c(O)c21", "A549/ATCC NSCLC", "inactive"],
  ["Cc1ccc(-c2cc3nc(C(Cl)Cl)nc(-c4ccccc4)n3n2)cc1", "A549/ATCC NSCLC", "inactive"],
  ["CC(=O)Nc1ccc(NC(=O)Nc2cccc(-c3nc(-c4ccc(NC(=O)c5cccnc5)cc4Cl)no3)c2)cc1C(F)(F)F", "A549/ATCC NSCLC", "active"],
  ["C#CCOc1ccc(/C=N/Nc2nc(-c3cc(Cl)ccc3Cl)cs2)cc1", "A549/ATCC NSCLC", "inactive"],
  ["CCNCCCn1c2c(c3cc(OC)c(OC)cc3c1=O)C(=O)c1cc(OC)cnc1-2", "A549/ATCC NSCLC", "inactive"],
  ["N#Cc1c(-c2ccccc2)cc(-c2c[nH]c3ccccc23)nc1-c1c[nH]c2ccccc12", "A549/ATCC NSCLC", "inactive"],
  ["C=C(C)C(=O)O[C@H]1C[C@@]2(C)OC(=CC2=O)/C(CO)=C\\[C@H]2OC(=O)C(=C)[C@H]12", "A549/ATCC NSCLC", "inactive"],
  ["NS(=O)(=O)c1ccc(-n2cc(CC=O)nn2)cc1", "A549/ATCC NSCLC", "inactive"],
  ["C(=C(\\C1=NCCN1)n1cnc2ccccc21)/c1cccc2ccccc12", "A549/ATCC NSCLC", "inactive"],
  ["Cc1ccc(/C=C/c2nn3c(-c4ccco4)nnc3s2)cc1", "A549/ATCC NSCLC", "inactive"],
  ["C/C(=N\\NC(=O)CSc1nc2sc3c(c2c(=O)n1-c1ccccc1)CCC(C)C3)c1ccc(Cl)cc1 (stereo not drawn)", "A549/ATCC NSCLC", "inactive"],
  ["CN(C)c1ncc(/C=C2\\SC(=S)N(Cc3ccccc3Cl)C2=O)s1", "A549/ATCC NSCLC", "inactive"]
]}

###

Each entry below carries its reported growth.
- System: NCI-H460 lung
- EXPERIMENT: NCI-60 one-dose screen, 48 h (100 = growth as untreated, 0 = no growth, -100 = all killed)
- RUN PARAMETERS: 10 µM unless noted
Compounds without any hit were thinned out: in the full panel of roughly 83,000, 20% have a hit. Active and inactive are the calls of the source. How the source made its calls: active means growth percent below 10; inactive means the rest.

{"columns": ["MOLECULE", "growth"],
 "data": [
  ["Clc1ccc(-c2csc(N/N=C/c3nc4ccccc4n3C3CC3)n2)cc1", "105% (inactive)"],
  ["COc1ccc2c(c1)c(-c1nnc(N)nc1-c1cn(C)c3ccccc13)cn2C", "99.5% (inactive)"],
  ["CS(=O)(=O)c1nccc(-c2c(-c3ccc(F)c(OCc4ccc(F)cc4)c3)nc3sccn23)n1", "10.3% (inactive)"],
  ["Cc1csc(Nc2cccc(Nc3nc(C)cs3)c2)n1", "76.5% (inactive)"],
  ["O=C1Nc2ccc(Cl)cc2/C1=C/c1ccc(OCc2ccc(Br)cc2F)cc1", "103% (inactive)"],
  ["CCN1C(=O)N(CC)C2SC(N/N=C/c3ccc(F)cc3)=NC21 (configuration not stated)", "4.72% (active)"],
  ["COc1ccc(-c2cc(-c3cccc4ccccc34)n3c(n2)nc2ccccc23)cc1OC", "3.44% (active)"],
  ["COc1ccc(-c2no[n+]([O-])c2Nc2ccccc2Br)cc1", "101% (inactive)"],
  ["NC(=O)N1N=C(c2cc3ccccc3oc2=O)CC1c1cn(-c2ccccc2)nc1-c1ccc(Cl)cc1 (configuration not stated)", "22.2% (inactive)"],
  ["O=[N+]([O-])c1ccc(-c2nnc(SCc3ccc(O)c4ncccc34)o2)cc1", "8.58% (active)"],
  ["C/C(=C(/C)C1CC1CCN(C(=O)c1ccc([N+](=O)[O-])cc1)S(=O)(=O)c1ccc(C)cc1)C1CCCCC1 (configuration not stated)", "98.6% (inactive)"],
  ["COc1cc(/C=C2\\SC(=O)NC2=O)ccc1OCC(=O)Nc1ccc(C(=O)/C=C/c2cc3ccccc3nc2Cl)cc1", "96.3% (inactive)"],
  ["COc1ccc2oc3c4[nH]c5ccccc5c4c4c(c3c2c1)C(=O)N(O)C4=O", "99.5% (inactive)"],
  ["N#Cc1ccc(S(=O)(=O)Nc2ccc(-c3cnc(N)[nH]3)cc2)cc1", "103% (inactive)"],
  ["COc1ccc(CCN2C(=O)/C(=C/c3nc(CO)cs3)SC2=S)cc1", "102% (inactive)"],
  ["CCOC(=O)/C(F)=C/C1CC1C1CCCCC1 (configuration not stated)", "104% (inactive)"],
  ["COc1ccc(-c2nnc(/N=C3/C(=O)Nc4ccc(Br)cc43)o2)cc1", "101% (inactive)"],
  ["CCN1C(=O)N(CC)C2C1NN=C1SC(c3ccccc3)=CC(=O)N12 (configuration not stated)", "6.45% (active)"],
  ["C(=C(\\C1=NCCN1)n1cnc2ccccc21)/c1cccc2ccccc12", "101% (inactive)"],
  ["CC(C)c1nn(-c2ccccc2)c(N2CCCCC2)c1/C=N/NC(N)=S", "96.5% (inactive)"],
  ["CCN1C(=O)N(CC)C2SC(N/N=C/c3ccc(OC)cc3)=NC21 (configuration not stated)", "2.55% (active)"],
  ["O=C(NNc1nc2cc(F)c(F)cc2n2cccc12)c1ncccn1", "10.6% (inactive)"],
  ["COc1ccc(-c2nc(SCC(C)C)nc(N/N=C\\c3cccc([N+](=O)[O-])c3)c2C#N)cc1", "14.1% (inactive)"],
  ["CCCC(=O)NC(c1cccnc1)c1cc(C(C)=O)c2cccnc2c1O (configuration not stated)", "12.1% (inactive)"],
  ["CS(=O)(=O)c1nccc(-c2c(-c3ccc(F)c(OCCc4ccccc4)c3)nc3sccn23)n1", "28.8% (inactive)"],
  ["IP(CCCSc1n(Cc2ccc3ccccc3c2)c(-c2ccccc2)c(-c2ccccc2)[n+]1Cc1ccc2ccccc2c1)(c1ccccc1)(c1ccccc1)c1ccccc1", "22.8% (inactive)"],
  ["O=c1[nH]c2cc(Cl)ccc2n1C1CCN(c2ccc3nnc(Cl)n3n2)CC1", "100% (inactive)"],
  ["O=C(NNc1nc2cc(F)cc(F)c2n2cccc12)c1ccncn1", "7.43% (active)"],
  ["COc1cc(O)c2c(c1)[C@H]1O[C@@H]1C[C@H](O)[C@H](O)C(=O)/C=C\\C[C@H](C)OC2=O", "68.1% (inactive)"],
  ["CCCCCCNC(=O)Oc1ccc(/C(=C(/C)c2ccc(OC)cc2)c2ccc(OCCN3CCCC3)cc2)cc1", "55.3% (inactive)"],
  ["COc1ccc(/C=N/Nc2nc(N/N=C/c3ccc(OC)cc3O)nc(N3CCOCC3)n2)c(O)c1", "23.5% (inactive)"],
  ["CCOC(=O)C1=C(C)Nc2nc3ccccc3n2C1c1cccc(Br)c1 (configuration not stated)", "89.2% (inactive)"],
  ["C(=C(\\C1=NCCN1)n1cnc2ccccc21)/c1ccc2ccccc2c1", "86.5% (inactive)"],
  ["O=C(Nc1cccc(Cl)c1)Nc1nc2ccc(-c3cccc4ccccc34)cc2s1", "34.1% (inactive)"],
  ["COc1ccc(-c2nnc(SCc3ccc(O)c4ncccc34)o2)cc1", "14.9% (inactive)"],
  ["Nc1n[nH]c2cccc(C#Cc3cccc(NC(=O)c4cccc(OC(F)(F)F)c4)c3)c12", "58.1% (inactive)"],
  ["CC(=O)c1ccc(NC(=O)COc2ccc(C3SCC(=O)N3c3ccc(Br)cc3)cc2)cc1 (configuration not stated)", "108% (inactive)"]
]}

###

- Tested on: U251 CNS
- EXPERIMENT: NCI-60 one-dose screen, 48 h
- RUN PARAMETERS: 10 µM unless noted
This is part of a sample that, as a whole, favours compounds with a hit. Of some 83,000 tested, about 20% had one in any assay. Calls of active or inactive are those of the source. The calls were made as follows: active = growth percent below 10; inactive = the rest.
Labels: active, inactive

{"columns": ["MOLECULE", "CATEGORY"],
 "data": [
  ["Oc1ccc(CSc2nnc(-c3ccncc3)n2-c2ccccc2)c2cccnc12", "inactive"],
  ["NC(N)=NS(=O)(=O)c1ccc(N=NC2C(=O)NN(c3ccccc3)C2=O)cc1 (configuration not stated)", "inactive"],
  ["CC1(C)CC[C@]2(C(=O)O)CC[C@]3(C)C(=CCC4[C@@]5(C)C[C@@H](O)[C@@H]6OC(c7ccccc7O)OC[C@@]6(C)C5CC[C@]43C)C2C1 (some centres not stated)", "inactive"],
  ["NC(=S)N/N=C(/C=C/c1cn(-c2ccccc2)nc1-c1ccc(Cl)cc1)c1cc2ccccc2oc1=O", "inactive"],
  ["CCC(C)[C@H]1OC(=O)[C@H](C(C)C)N(C)C(=O)[C@@H](C(C)C)OC(=O)[C@H](C(C)C)N(C)C(=O)[C@@H](C(C)CC)OC(=O)[C@H](C(C)C)N(C)C1=O (some centres not stated)", "inactive"],
  ["O=C1c2c(c3c4cc(Br)ccc4[nH]c3c3ccc4ccccc4c23)C(=O)N1CCN1CCNCC1", "active"],
  ["C=CCn1c(SCC(=O)Nc2cccc(C(=O)/C=C/c3ccc(Cl)cc3)c2)nc2ccccc2c1=O", "inactive"],
  ["Cc1cn(-c2cc(NC(=O)c3cncc(C#Cc4cnc5ccc(O[C@@H]6CCOC6)nn45)c3)cc(C(F)(F)F)c2)cn1", "active"],
  ["CN1C(=O)N(C)C2Nn3c(s/c(=C\\c4ccccn4)c3=O)=NC21 (configuration not stated)", "inactive"],
  ["CN(C)CCn1c2ccc(N)cc2c2nc3ccccc3nc21", "inactive"],
  ["Cc1nc(-c2cc3ccccc3c(N3CCN(C)CC3)n2)cs1", "inactive"],
  ["CC(=O)NC(C)(C)C(=O)N1CCC[C@H]1C(=O)NC(C)(C)C(=O)N[C@@H](C)C(=O)NC(C)(C)C(=O)NC(C)(C)C(=O)N[C@@H](CCC(N)=O)C(=O)NC(C)(C)C(=O)N[C@H](C(=O)NC(C)(C)C(=O)NCC(=O)N[C@@H](CC(C)C)C(=O)NC(C)(C)C(=O)N1CCC[C@H]1C(=O)N[C@H](C(=O)NC(C)(C)C(=O)NC(C)(C)C(=O)N[C@@H](CCC(N)=O)C(=O)N[C@@H](CCC(N)=O)C(=O)N[C@H](CO)Cc1ccccc1)C(C)C)C(C)C", "inactive"]
]}
